- Tested on: CCRF-CEM leukemia
- PROTOCOL_NOTES: NCI tumour cell line growth inhibition, 48 h; in the data active means GI50 below about 0.43 µM; inactive means the rest
Hi! Could you answer with just one of these? active, inactive

NS(=O)(=O)c1ccc(CCN=C=S)cc1 | inactive
COc1ccc(C2=NN(C(C)=O)C(c3cn(-c4ccccc4)nc3-c3ccc(Cl)cc3)C2)cc1 (centres undefined) | inactive
COC1=CC(c2ccc[nH]2)=N/C1=C\c1ccc[nH]1 | active
COC(=O)C1=C(C(=O)OC)C23C=C(C)C1C2=C(C)C1(CC1)[C@@](C)(O)C3=O (some centres undefined) | inactive

Returns: the outcome recorded for `COc1cc2nc(Nc3cccc(F)c3)nc(Nc3cc(C)[nH]n3)c2cc1OC` in this assay. inactive

Okay, and `C=C(C)[C@@H]1CC[C@]2(C)[C@H](CC[C@@H]3[C@H]4[C@H]5OC[C@@]4(CCC5(C)C)CC[C@]32C)[C@@]1(C)CCCN` ? inactive

Subsequent entry: COc1ccc2c(c1)CCC1C2CC[C@]2(C)/C(=N/OC(=O)Cc3ccccc3)CCC12 (some centres undefined) inactive

// next record `CCCCCCCC[N+](C)(CCCCCCCC)CCCCCCCC` active

// repeat for `N#Cc1ccnc(N2C(=O)CC[C@H]2C(=O)N(c2cncc(F)c2)[C@H](C(=O)NC2CC(F)(F)C2)c2ccccc2Cl)c1` and report inactive

###

- System: DU-145 prostate
- PROTOCOL_NOTES: NCI tumour cell line growth inhibition, 48 h; in the data active means GI50 below about 0.43 µM; inactive means the rest
API: response.call in active, inactive

Solved cases (10 shown):
COc1cc(-n2cc(-c3ccc(Cl)cc3)[nH]c2=O)cc(OC)c1OC | inactive
COc1ccc([N+](=O)[O-])c(S(=O)(=O)c2ccc(Cl)cc2)n1 | inactive
COc1ccc2c(c1)CCC1C2CC[C@]2(C)/C(=N/OC(=O)Cc3ccccc3)CCC12 (stereo partly specified) | inactive
CCC(C)C(NC(=O)C1CCCN1C(=O)C(NC(=O)C(C)N)C(C)C)C(N)=O (stereo unspecified) | inactive
C[C@H]1[C@H](C)CC[C@]2(C(=O)O)CC[C@]3(C)C(=CC[C@@H]4[C@@]5(C)C/C(=C/c6ccco6)C(=O)C(C)(C)[C@@H]5CC[C@]43C)[C@H]12 | inactive
COc1cc(/C=C2\COc3ccc(O)c(O)c3C2=O)cc(OC)c1 | inactive
COc1ccc(/C=C/c2n[nH]c3ccc(N4CCOC4=O)cc23)cc1 | inactive
Nc1ccc(/C=N/Nc2ccnc3c(N)cccc23)c2cccnc12 | inactive
CCCN(CCC)c1ccc(/C=N/NC(=O)c2cccnc2)c(Cl)c1 | inactive
Cc1ccc(C)c(-c2csc(Nc3ccc(C)c(C)c3)n2)c1 | inactive

Identify the outcome logged in this assay for the compound shown: `CCC(=C/[C@H](C)C/C=C/C(C)=C/[C@@H](C)C(=O)[C@@H](C)[C@H](O)[C@@H](C)CC)/C=C/[C@H]1OC(=O)C=C[C@H]1C` active

How about `CCCCCCCC[N+](C)(CCCCCCCC)CCCCCCCC` ? active

// repeat for `CCCc1nc2c(C)cc(-c3nc4ccccc4n3C)cc2n1Cc1ccc(-c2ccccc2C(=O)O)cc1` and report inactive

###

- Test system: NCI-H460 lung
- PROTOCOL_NOTES: NCI tumour cell line growth inhibition, 48 h; in the data active = GI50 below about 0.43 µM; inactive = the rest
Select the matching outcome among yes (1) (active), no (0) (inactive)

Kindly provide the recorded test outcome for the following molecule: `COc1ccc(-c2nc(-c3nc4ccc(OC)cc4[nH]3)cc3c2[nH]c2ccccc23)cc1` no (0)

Consider next the molecule `CCn1cnc2c(Nc3cccc(Cl)c3)nc(N[C@@H]3CCCC[C@@H]3N)nc21` in the same way. no (0)

Now the molecule `COC1=CC(c2ccc[nH]2)=N/C1=C\c1ccc[nH]1` yes (1)

Another molecule to look at: `Cc1nc(NC(=O)CCCN2C(=O)c3cccc4cccc(c34)C2=O)sc1C(=O)Nc1cc(C(=O)NCCCN(C)C)n(C)c1` no (0)

Same question, COc1ccc2c(c1)CCC1C2CC[C@]2(C)/C(=N/OC(=O)Cc3ccccc3)CCC12 (stereo not given in full) this time no (0)

Another molecule to look at: `CC(=O)N=c1ccc2nc3c(cc(N)c4ccccc43)oc-2c1` no (0)

Also need `CCCN(CCC)c1ccc(/C=N/NC(=O)c2cccnc2)c(Cl)c1` , thanks. no (0)

Now consider `COc1ccc([N+](=O)[O-])c(S(=O)(=O)c2ccc(Cl)cc2)n1` . no (0)

What do you have for `NCCC(O)(P(=O)(O)O)P(=O)(O)O` ? no (0)

Entry `COc1ccc2c(c1)CC[C@@H]1[C@@H]2CC[C@]2(C)C(c3ccco3)=C(C=O)C[C@@H]12` please no (0)
